Target of assay: T1, human CCR8 (human, UniProt P51685 1-355)
T1 construct: Native CCR8 on human PBMC (CCR8+ CD3+ or CCR8+ CD4+ lymphocytes); also called chemokine (C-C motif) receptor 8
T1 sequence (P51685 whole entry): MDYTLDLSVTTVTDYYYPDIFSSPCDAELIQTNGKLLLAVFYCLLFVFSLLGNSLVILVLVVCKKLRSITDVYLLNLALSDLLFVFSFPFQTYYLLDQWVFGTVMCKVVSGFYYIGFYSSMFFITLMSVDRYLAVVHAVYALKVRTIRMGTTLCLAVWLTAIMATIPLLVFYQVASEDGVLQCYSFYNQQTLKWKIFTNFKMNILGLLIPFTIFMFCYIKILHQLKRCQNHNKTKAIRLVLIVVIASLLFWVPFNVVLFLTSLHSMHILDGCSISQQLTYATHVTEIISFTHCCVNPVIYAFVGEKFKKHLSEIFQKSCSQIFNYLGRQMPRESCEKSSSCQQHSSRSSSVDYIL
Measurement description: flow blocking, PBMC CCR8+CD4+; competitor PE-AB6
We begin with a simple list: items and their reported % Blocking.

Binder	% Blocking / %
AB5 (antibody, V domains shown, Hybridoma monoclonal; Same VH/VL entries as AB6; also called antibody 5; clone 5) VH: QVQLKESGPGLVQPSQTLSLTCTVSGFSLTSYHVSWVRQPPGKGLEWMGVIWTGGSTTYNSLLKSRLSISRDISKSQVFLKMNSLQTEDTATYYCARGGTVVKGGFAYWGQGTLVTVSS VL: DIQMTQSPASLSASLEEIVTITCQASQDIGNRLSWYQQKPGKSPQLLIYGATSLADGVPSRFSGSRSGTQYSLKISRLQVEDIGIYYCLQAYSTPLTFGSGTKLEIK	95.5
AB10 (antibody, V domains shown, Hybridoma monoclonal; also called antibody 10; clone 10) VH: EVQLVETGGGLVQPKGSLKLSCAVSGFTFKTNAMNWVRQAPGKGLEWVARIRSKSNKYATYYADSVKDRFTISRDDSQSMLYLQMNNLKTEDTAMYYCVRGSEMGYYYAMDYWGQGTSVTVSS VL: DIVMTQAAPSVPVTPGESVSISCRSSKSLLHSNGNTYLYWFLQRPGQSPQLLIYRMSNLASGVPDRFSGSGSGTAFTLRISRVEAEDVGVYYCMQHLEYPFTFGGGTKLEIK	-7.92
AB8 (antibody, V domains shown, Hybridoma monoclonal; also called antibody 8; clone 8) VH: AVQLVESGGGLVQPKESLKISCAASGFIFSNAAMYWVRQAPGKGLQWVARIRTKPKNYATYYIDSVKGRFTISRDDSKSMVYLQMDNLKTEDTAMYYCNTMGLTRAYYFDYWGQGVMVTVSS VL: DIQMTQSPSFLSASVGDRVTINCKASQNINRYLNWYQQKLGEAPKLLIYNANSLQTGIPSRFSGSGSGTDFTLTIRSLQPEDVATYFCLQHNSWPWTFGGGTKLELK	-14.4
AB3 (antibody, V domains shown, Hybridoma monoclonal; also called antibody 3; clone 3) VH: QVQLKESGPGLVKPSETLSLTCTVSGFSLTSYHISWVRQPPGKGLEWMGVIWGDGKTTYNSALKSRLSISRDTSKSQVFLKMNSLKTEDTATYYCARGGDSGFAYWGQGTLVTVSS VL: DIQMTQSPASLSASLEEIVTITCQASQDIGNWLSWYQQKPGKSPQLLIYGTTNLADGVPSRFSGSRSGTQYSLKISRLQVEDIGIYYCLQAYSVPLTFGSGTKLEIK	84.7
AB1 (antibody, V domains shown, Hybridoma monoclonal (mouse or rat); Same VH/VL entries as AB2; also called antibody 1; clone 1) VH: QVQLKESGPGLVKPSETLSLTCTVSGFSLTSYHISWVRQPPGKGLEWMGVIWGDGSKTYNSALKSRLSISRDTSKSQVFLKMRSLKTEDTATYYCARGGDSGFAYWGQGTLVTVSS VL: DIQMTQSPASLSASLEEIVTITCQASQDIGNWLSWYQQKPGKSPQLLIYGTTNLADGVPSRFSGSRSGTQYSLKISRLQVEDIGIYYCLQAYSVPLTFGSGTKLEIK	86.6
